ASSAYED_TARGET: Lactoperoxidase (Bos taurus, UniProt P80025)
TEST_DETAILS: Inhibition of bovine milk LPO assessed as reduction in NaOSCN production in presence of H2O2/NaSCN after 5 mins
PROPERTY_MEASURED: pIC50
// pIC50 is dimensionless: -log10 of concentration (M)

Take a look at these entries with their results.
COc1ccc2c(C)nc(NC(=N)N)nc2c1 = 5.49
COc1cc(N[C@H](C)CCCN)c2ncccc2c1 = 6.10
O=c1cc(-c2ccc(O)cc2)oc2cc(O)cc(O)c12 = 4.75

(Q) So what does the record say about pIC50 for O=c1c(O)c(-c2ccc(O)c(O)c2)oc2cc(O)cc(O)c12 ?
(A) 5.21

---

ASSAYED_TARGET: Myeloperoxidase (Homo sapiens, UniProt P05164)
Sequence (P05164 165-273 limits assumed): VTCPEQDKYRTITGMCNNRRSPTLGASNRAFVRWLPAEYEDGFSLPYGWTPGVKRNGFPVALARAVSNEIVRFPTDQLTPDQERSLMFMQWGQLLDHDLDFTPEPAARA
Sequence (P05164 279-745 limits assumed): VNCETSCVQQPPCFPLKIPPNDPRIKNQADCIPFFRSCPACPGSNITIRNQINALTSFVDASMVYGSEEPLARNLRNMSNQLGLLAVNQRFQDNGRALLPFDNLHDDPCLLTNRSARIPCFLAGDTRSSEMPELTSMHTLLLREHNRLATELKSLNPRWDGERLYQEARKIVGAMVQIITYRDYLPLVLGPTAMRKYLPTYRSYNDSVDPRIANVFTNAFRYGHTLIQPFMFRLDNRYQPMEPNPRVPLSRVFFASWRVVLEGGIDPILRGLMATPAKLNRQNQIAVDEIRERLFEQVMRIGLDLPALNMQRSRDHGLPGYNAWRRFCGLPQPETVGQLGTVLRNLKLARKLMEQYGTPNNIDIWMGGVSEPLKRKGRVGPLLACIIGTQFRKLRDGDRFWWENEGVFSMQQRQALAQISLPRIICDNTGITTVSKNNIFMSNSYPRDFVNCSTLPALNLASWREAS
TEST_DETAILS: Inhibition of recombinant MPO (unknown origin) assessed as reduction in taurine chloramine production preincubated with enzyme and taurine followed by H2O2 addition measured after 5 mins
PROPERTY_MEASURED: IC50 (µM)
Write the value in µM as a bare number.

Take a look at these entries with their results.
Cc1nc(NC(=N)N)nc2ccccc12 = 0.9
c1c2c(cc3c4n(nc13)CCS4)OCO2 = 0.085
Cc1nc(N=C(N)N)nc2cc(F)ccc12 = 0.04

(Q) So what does the record say about IC50 for Cc1nc(N=C(N)N)nc2ccc(F)cc12 ?
(A) 0.145

---

ASSAYED_TARGET: Myeloperoxidase (Homo sapiens, UniProt P05164)
TEST_DETAILS: Inhibition of recombinant MPO (unknown origin) assessed as reduction in taurine chloramine production preincubated with enzyme and taurine followed by H2O2 addition measured after 5 mins
# IC50 listing for each entry below

CCn1cc(C(=O)O)c(=O)c2cc(F)c(N3CCN[C@@H](C)C3)c(F)c21 = > 5 µM
C[C@H]1CN(c2cc3c(cc2F)c(=O)c(C(=O)O)cn3C2CC2)CCN1 = > 5 µM

Read the next record carefully.
(Q) Lab note: need IC50 with Myeloperoxidase (Homo sapiens, UniProt P05164) for entry CSc1ccc2c(c1)N(CC[C@H]1CCCCN1C)c1ccccc1S2 , please look it up.
(A) > 5 µM
